target-under-test: hα2C receptor (Homo sapiens, UniProt P18825)
Construct: expressed in transfected cells; host or cells: CHO cells
Sequence (P18825 whole entry): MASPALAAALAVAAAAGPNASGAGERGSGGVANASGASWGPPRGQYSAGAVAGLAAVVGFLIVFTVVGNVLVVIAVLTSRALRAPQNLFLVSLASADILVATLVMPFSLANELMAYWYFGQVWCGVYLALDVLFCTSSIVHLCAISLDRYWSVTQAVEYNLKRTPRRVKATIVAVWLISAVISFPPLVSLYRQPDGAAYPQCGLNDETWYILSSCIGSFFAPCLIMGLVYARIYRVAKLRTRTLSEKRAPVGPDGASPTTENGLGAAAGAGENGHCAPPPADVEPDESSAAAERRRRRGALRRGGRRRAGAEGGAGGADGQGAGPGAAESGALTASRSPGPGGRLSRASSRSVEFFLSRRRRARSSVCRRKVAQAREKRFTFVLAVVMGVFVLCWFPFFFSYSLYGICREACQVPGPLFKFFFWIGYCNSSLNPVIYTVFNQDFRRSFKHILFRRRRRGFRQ
measurement-notes: Radioligand binding experiment for hα2C receptor ([3H]-raulwolscine, CHO cell membranes)
settings: [3H]-raulwolscine 1 nM, membranes of CHO cells transfected with human α2C receptor; read-out: pIC50 hα2C (converted)
In this section we review reported log10 IC50 values for a set of compounds.
log10 IC50, nM

Below, each entry is followed by its recorded log10 IC50 result.
> print(dat)
                                   compound  endpoint.result
1  CON=Cc1ccc2c(c1)OCC1C2=NOC1CN1CCN(CC(C)=Cc2ccccc2)CC1 (centres unmarked)             0.60
2  C/C(=C\c1ccccc1)CN1CCN(CC2ON=C3c4ccc(C=O)cc4OCC32)CC1 (centres unmarked)            -0.10
3  COc1cc2c(cc1C)OCC1C2=NOC1CN1CCN(C/C(C)=C/c2ccccc2)CC1 (centres unmarked)             0.20
4  C/C(=C\c1ccccc1)CN1CCN(CC2ON=C3c4ccc(C#N)cc4OCC32)CC1 (centres unmarked)            -0.30
5  COCCOCOCc1cc2c(cc1OC)C1=NOC(CN3CCN(C/C(C)=C/c4ccccc4)CC3)C1CO2 (centres unmarked)            -0.10
6  COc1cc2c(cc1CN1CCOCC1)OCC1C2=NOC1CN1CCN(CC(C)=Cc2ccccc2)CC1 (single isomer, unassigned) [Compound 20]             1.70
7  Cc1ccc2c(c1)C1=NOC(CN3CCN(CC=Cc4ccccc4)CC3)C1CO2 (centres unmarked)             1.20

As a next step, examine the compound that follows.
Asked: Please list log10 IC50 recorded for the compound COc1cc2c(cc1CN1CCOCC1)OCC1C2=NOC1CN1CCN(C/C(C)=C/c2ccccc2)CC1 (centres unmarked)
Given back: -0.50
